Taken from ChEMBL document CHEMBL1143591.

# Test system: HL-60
# Experiment: Concentration required to inhibit 50% cell growth of HL-60 Leukemia cell line
# Type: functional
# Test conditions: Homo sapiens
Readout type: GI50 (nM)
Kindly provide the numeric value in nM only, without the unit symbol.

Guide cases for GI50, answers given:
COc1ccc(-c2cc3ccccc3c3nc(N)c4ccccc4c23)c(OC)c1 309
COc1ccc(-c2cc3ccccc3c3nc(N)c4ccccc4c23)cc1OC 61.7
COc1ccc(-c2cc3ccccc3c3nc(N)c4ccccc4c23)c(OC)c1OC 380
COc1cc(-c2cc3ccccc3c3nc(N)c4ccccc4c23)cc(OC)c1OC 63.1
Nc1nc2c3ccccc3cc(-c3ccco3)c2c2ccccc12 437
COc1ccc([C@H]2Cc3ccccc3-c3nc(N)c4ccccc4c32)cc1OC 7080
COc1cc([C@H]2Cc3ccccc3-c3nc(N)c4ccccc4c32)cc(OC)c1O 288
Nc1nc2c3ccccc3cc(-c3ccc4c(c3)OCO4)c2c2ccccc12 4470
COc1cc([C@H]2Cc3ccccc3-c3nc(N)c4ccccc4c32)cc(OC)c1OC 1700
COc1ccc([C@H]2Cc3ccccc3-c3nc(N)c4ccccc4c32)c(OC)c1OC 6760

// query Lab note: need GI50 with HL-60 for entry `Nc1nc2c(c3ccccc13)[C@@H](c1ccc3c(c1)OCO3)Cc1ccccc1-2` , please look it up.
// result 5500

// query Query for HL-60: what GI50 does the record show for `COc1ccc(OC)c([C@H]2Cc3ccccc3-c3nc(N)c4ccccc4c32)c1` ?
// result 13800

// query Lab note: need GI50 with HL-60 for entry `Nc1nc2c(c3ccccc13)[C@@H](c1ccco1)Cc1ccccc1-2` , please look it up.
// result 4170

// query Which GI50 is reported with HL-60 for this entry: `COc1ccc([C@H]2Cc3ccccc3-c3nc(N)c4ccccc4c32)cc1O` ?
// result 8130
